test system: E. coli UTI89 K1F phage lysis inhibition, OD600; assay: protection of E. coli UTI89 from phage lysis – set 6, capsule biogenesis inhibitor project, dose response (AID 588386)
Test Readout: IC50

Hello, please tell me recorded IC50 for this one: `O=C(Nc1ccncc1)c1ccc2ncsc2c1` 1640 nM
